// data source = PubChem BioAssay (NCI)

- System: SN12C renal
- assay.explanation: NCI tumour cell line growth inhibition, 48 h
The reader will find reported TGI values listed item by item below.
Give a bare numeral; the unit µM is implied.

Some compounds with known TGI results, for comparison:
compound	system.under.test	TGI, µM
CC(CNCCCNCCNCCCNCO)[N+](=O)[O-] (stereo unspecified)	SN12C renal	28.4
CCCCN(CCCC)CCC(O)c1cc2c(Cl)cc(Cl)cc2c2cc(C(F)(F)F)ccc12 (stereo unspecified)	SN12C renal	20
CCCCNC(=O)c1cc(NCc2cc(O)ccc2O)ccc1O	SN12C renal	29.5
C/C=C/[C@H]1O[C@@H]2C(=C[C@H]1O)C(=O)O[C@H]2C	SN12C renal	33.6

Now consider a different compound.
Input line: Name the reported TGI value associated with the compound Cc1ccc(C2=C(c3ccccc3)C(c3ccccc3)Oc3ccc(C)cc32)cc1 (stereo unspecified)
Output line: 34.3

====

- System: UO-31 renal
- assay.explanation: NCI tumour cell line growth inhibition, 48 h
value.type: TGI

compound	system.under.test	TGI
NC(Cc1ccc(S(=O)(=O)O)cc1)C(=O)NC(Cc1ccc(S(=O)(=O)O)cc1)C(=O)NC(Cc1ccc(S(=O)(=O)O)cc1)C(=O)O (configuration not stated)	UO-31 renal	> 100 µM
CC1=C(Cl)C=CP(=O)(OC(C)C)C1 (configuration not stated)	UO-31 renal	> 100 µM

Input line: For the compound shown here, O=c1c(NO)c([N+](=O)[O-])cnn1-c1ccccc1 , give the reported TGI.
Output line: 12.9 µM

Input line: Which TGI reading was recorded for the compound Nc1nc2ccc(OCC(O)CN3CCCCC3)cc2[n+]([O-])n1 (configuration not stated) ?
Output line: > 100 µM

Input line: Entry Cc1cccc(N2C(=O)C(=O)C(c3nc4ccccc4s3)/C(=N/NC(=S)NN)C2=O)c1C (configuration not stated) : reported TGI = ?
Output line: > 100 µM

Input line: # TGI lookup, item N#Cc1c(O)c(N=Nc2ccc(Cl)cc2)c(=O)n2c1[nH]c1ccccc12
Output line: > 100 µM

Input line: Entry Cc1ccn2c(CCc3nnc4cc(C)ccn34)nnc2c1 : reported TGI = ?
Output line: > 100 µM

Input line: I'd like to know its TGI. The compound in question is CCOC(=O)c1nc2ccccc2nc1Oc1cc(OC)c(OC)c(OC)c1
Output line: > 100 µM

Input line: Tell me the measured TGI of O=C(O)CCc1c2ccc(=O)c(O)c-2oc2c(O)c(O)ccc12 , please.
Output line: > 100 µM

Input line: # TGI lookup, item COc1ccccc1N=N/C(=N\NC(=O)c1ccc(C)cc1)c1ccc(N(CCC#N)CCC#N)cc1C
Output line: > 100 µM

Input line: Fill blank: measured TGI of the compound N#Cc1c(O)cc(=O)n2c1[nH]c1ccccc12 is ____.
Output line: > 100 µM

Input line: Consider the compound CCC(=O)Nc1ccccc1C#C/C=C\C#Cc1ccccc1C(F)(F)F and give its measured TGI.
Output line: > 50 µM

Input line: Item O=C(O)CN1CCN(CC(=O)N2CCN(C(=O)OCc3ccccc3)CC2)CCN(CC(=O)O)CCN(CC(=O)N2CCN(C(=O)OCc3ccccc3)CC2)CC1 has what recorded TGI?
Output line: > 100 µM

Input line: Would you mind telling me what TGI value was observed for Cc1ccc(C(SCC(N)C(=O)O)(c2ccccc2)c2ccccc2)cc1 (configuration not stated) ?
Output line: > 100 µM

Input line: Using the record for CCCCN(CCCC)CCC(O)c1cc2c(Cl)cc(Cl)cc2c2cc(C(F)(F)F)ccc12 (configuration not stated) , report its TGI.
Output line: 17.4 µM

Input line: Find the recorded TGI belonging to COc1cc(Nc2nnc3n2S(=O)(=O)c2cc(C)c(Cl)cc2S3)cc(OC)c1 and report it.
Output line: > 100 µM

Input line: If you can, please state the reported TGI value of COc1cc2ncnc(Nc3ccc4c(cnn4Cc4ccccc4)c3)c2cc1OC .
Output line: > 25 µM

Input line: Which measured TGI value corresponds to O=[N+]([O-])/C(C(Cl)=C(Cl)Cl)=C(\Nc1ccccc1)n1nnc2ccccc21 ?
Output line: 48.9 µM
